tested on: RPMI-8226; test: NCI tumour cell line growth inhibition, 48 h
Activity calls are given as the source filed them. Cut-off read from the data, not from the text of the source: active = GI50 up to about 1.1 µM and inactive = higher.
GI50 for assorted compounds

COMPOUND	GI50
COc1ccc2c(-c3ccc(OCCN(C)C)cc3)c(Oc3ccccc3)c(=O)oc2c1	4.25 µM (inactive)
O=C(O/N=C1\CCCC\C1=C/c1ccccc1)c1ccc([N+](=O)[O-])cc1	> 100 µM (inactive)
Nc1nc(N)c2ncn(-c3ccc(Br)cc3)c2n1	11.4 µM (inactive)
O=S1(=O)c2ccccc2C(=NO)c2ccccc21	59.4 µM (inactive)
CC(O)C1CC1(CO)CNc1cc(Cl)nc(N)n1 (stereo not given)	> 100 µM (inactive)
CC1(C)C2CC3C(C)(C2)C31c1cc(Cl)ccc1N (stereo not given)	13 µM (inactive)
COC(=O)/C=C\C1C(C(=O)OC)C2(C(=O)OC)CCC1(C(=O)OC)N2 (stereo not given)	5.08 µM (inactive)
Cc1cccc2sc(-c3ccc(O)cc3)nc12	20.9 µM (inactive)
COC(=O)c1ccc2[nH]c3c(c2c1)CC(=O)Nc1ccccc1-3	> 100 µM (inactive)
CSCCC(NC(=O)C(Cc1c[nH]c2ccccc12)NC(=O)CCNC(=O)OC(C)(C)C)C(=O)NC(CC(=O)O)C(=O)NC(Cc1ccccc1)C(N)=O (stereo not given)	> 50 µM (inactive)
